test system: Musca domestica; assay: Musca domestica test; type: in vivo; conditions: application rate of 100 ppm; adults, sugar sponge; after 2 days
PROPERTY_LABEL: activity (mortality in %)

{"INPUT_SMILES": "CCOC(c1cc(I)c(NC(=O)c2cccc(NC(=O)c3cccnc3F)c2)c(I)c1)(C(F)(F)F)C(F)(F)F", "PROPERTY_LABEL": "activity (mortality in %)", "UNITS_TEXT": "%", "MEASURED_RESULT": 100}
{"INPUT_SMILES": "C#CCOC(c1cc(I)c(NC(=O)c2cccc(NC(=O)c3cccnc3Cl)c2)c(I)c1)(C(F)(F)F)C(F)(F)F", "PROPERTY_LABEL": "activity (mortality in %)", "UNITS_TEXT": "%", "MEASURED_RESULT": 100}
{"INPUT_SMILES": "CCOC(c1cc(I)c(NC(=O)c2cccc(NC(=O)c3ccc(Cl)nc3)c2)c(I)c1)(C(F)(F)F)C(F)(F)F", "PROPERTY_LABEL": "activity (mortality in %)", "UNITS_TEXT": "%", "MEASURED_RESULT": 100}
{"INPUT_SMILES": "CCOC(c1cc(I)c(NC(=O)c2cccc(NC(=O)c3cccnc3Cl)c2)c(I)c1)(C(F)(F)F)C(F)(F)F", "PROPERTY_LABEL": "activity (mortality in %)", "UNITS_TEXT": "%", "MEASURED_RESULT": 100}
{"INPUT_SMILES": "CCOC(c1cc(I)c(NC(=O)c2cccc(NC(=O)c3cccc(F)c3)c2)c(I)c1)(C(F)(F)F)C(F)(F)F", "PROPERTY_LABEL": "activity (mortality in %)", "UNITS_TEXT": "%", "MEASURED_RESULT": 80}
